# testDetails: NCI Yeast Anticancer Drug Screen. Data for the mec2-1 strain (AID 157)
# experimentalContext: S. cerevisiae mec2-1 strain, at 50.0 µM, active compounds read high
The panel holds about 79,000 compounds, 15% with a hit somewhere; the sample as a whole holds those more often.

compound: COC(=O)C1CC=CCC1 (configuration not stated)
units: %
growth inhibition: -8.05
--
compound: O=c1ncccn1C1OC(CO)C(O)C1F (configuration not stated)
units: %
growth inhibition: -6.7
--
compound: O=C1c2ccccc2C(=O)N1CNc1cccc(NCN2C(=O)c3ccccc3C2=O)c1
units: %
growth inhibition: -11.7
--
compound: CC1=C/C(=N\N(C)C)C(C(O)(C(F)(F)F)C(F)(F)F)C(C)(C)C1 (configuration not stated)
units: %
growth inhibition: -19.1
--
compound: CN1CCCC2C(c3ccccc3)C(C3=NCCCC3)C(c3ccccc3)CC21 (configuration not stated)
units: %
growth inhibition: -3.2
--
compound: CCCCCCc1cc(C(=O)N/N=C/c2ccccc2O)c2ccccc2n1
units: %
growth inhibition: -8.1
--
compound: COCC(C)OC(=O)c1ccccc1Cl (configuration not stated)
units: %
growth inhibition: 10.3
--
compound: C=CCC(c1ccccc1)(c1ccccc1)c1ccccc1
units: %
growth inhibition: 5.25
--
compound: COC(=N)c1ncn(Cc2ccccc2)c1N
units: %
growth inhibition: -28.6
--
compound: O=C(NC1C=Nc2ccc(Cl)cc2NC1=O)c1ccc(Cl)cc1 (configuration not stated)
units: %
growth inhibition: 20.9
--
compound: Cc1cccc(NC(=O)/C=C/c2ccc(N(CCC#N)CCC#N)cc2C)c1
units: %
growth inhibition: 7.25
--
compound: O=C1c2ccccc2C(=O)N1CCn1[nH]c(=O)c2ccccc2c1=O
units: %
growth inhibition: -10.4
--
compound: O=C(Cc1ccccc1CCO)NCCc1ccccc1
units: %
growth inhibition: 1.55
--
compound: COc1cc(/C=C2\SC(=S)N(C=C3C(=O)NC(=O)NC3=O)C2=O)cc(OC)c1OC
units: %
growth inhibition: -0.75
--
compound: c1c[nH]c(C2Nc3ccccc3CO2)c1 (configuration not stated)
units: %
growth inhibition: -13.2
--
compound: CCCCNC(=O)OCC
units: %
growth inhibition: -25.6
--
compound: O=[N+]([O-])c1ccc(Nc2ccccc2)nc1
units: %
growth inhibition: -35.5
--
compound: CSc1ncnc2c1ncn2CC(=O)C1CCC2C3CCC4=CC(=O)CCC4(C)C3CCC12C (configuration not stated)
units: %
growth inhibition: -48.2
--
compound: N#Cc1ccc(-n2cccc2)cc1
units: %
growth inhibition: -1.6
--
compound: O=C(NNC(=S)Nc1ccc(S(=O)(=O)N2CCCCC2)cc1)c1ccncc1
units: %
growth inhibition: 11.1
--
compound: CCNC(=O)C(C(=O)OCCN(CC)CC)c1ccccc1 (configuration not stated)
units: %
growth inhibition: 5.7
--
compound: O=C1OC(=O)C2=C1CCC2
units: %
growth inhibition: -14.1
--
compound: O=c1[nH]cc(CO)c(=O)[nH]1
units: %
growth inhibition: 4.8
--
compound: c1ccc(OCCCCN2CCNCC2)cc1
units: %
growth inhibition: -14.3
--
compound: Nc1nc2cc(COc3ccc(C(=O)O)cc3)ccc2nc1-c1ccccc1
units: %
growth inhibition: -17.9
--
compound: COC(=O)C1(O)C(=O)NC2=C1C(=O)c1ccccc1C2=O (configuration not stated)
units: %
growth inhibition: 5.8
--
compound: COc1cc(CNc2nc3c(N)cc(C(F)(F)F)cc3nc2-c2ccccc2)cc(OC)c1OC
units: %
growth inhibition: -9.35
--
compound: CCOC(=O)c1nc(SC)sc1NC(=O)c1ccccc1[N+](=O)[O-]
units: %
growth inhibition: -4.6
--
compound: Cc1cc(Cl)ccc1OCCCC(=O)NC(Cc1ccccc1)C(=O)O (configuration not stated)
units: %
growth inhibition: 8.95
--
compound: O=C(c1ccc2c(c1)OCO2)C(O)c1ccc(Cl)cc1 (configuration not stated)
units: %
growth inhibition: 3.9
--
compound: O=C1Cc2c([nH]c3ccccc23)-c2ccccc2N1
units: %
growth inhibition: 13.9
--
compound: c1ccc2c[n+](CCCC[n+]3ccc4ccccc4c3)ccc2c1
units: %
growth inhibition: 17.1
--
compound: C(CN1CCC2CCC(C2)C1)=C(c1ccccc1)c1ccccc1 (configuration not stated)
units: %
growth inhibition: -1.3
--
compound: CN1C(=O)C(/C=N/NC(=O)c2cccnc2)C(N)N(C)C1=O (configuration not stated)
units: %
growth inhibition: 18.2
--
compound: O=C(O)c1cc2cc(O)ccc2[nH]1
units: %
growth inhibition: 3.6
--
compound: O=Cc1cc2c(cc1Cl)OCO2
units: %
growth inhibition: -8.05
--
compound: Nc1cccc(OCC2CCCN3CCCCC23)c1 (configuration not stated)
units: %
growth inhibition: -17.9
